Would you mind telling me the reported MIC of each entry?
Tested on: Mycobacterium tuberculosis H37Rv
Test: Mycobacterium tuberculosis H37Rv Inhibition Assay (Whole Cell Assay)
Assay type: cell-based
Conditions: ATCC 25618 / H37Rv, H37Rv strain (ATCC25618), Middlebrook 7H9, six days at 37° C., resazurin fluorescence after 48 hours

**Q:** May I ask what MIC has been recorded for Cc1ccc([C@H]2C[C@@H](C(F)(F)F)n3ncc(C(=O)NCc4ccc(C)c(Cl)c4)c3N2)cc1 (relative stereo) ?
**A:** 1 to 2 µM

**Q:** Consider the molecule CCc1ccc([C@H]2C[C@@H](C(F)(F)F)n3ncc(C(=O)NCc4ccccc4F)c3N2)cc1 (relative stereo) and give its measured MIC.
**A:** ≤ 1 µM

**Q:** Tell me the measured MIC of CCc1ccc([C@H]2C[C@@H](C(F)(F)F)n3ncc(C(=O)NCc4cnc(OC)c(F)c4)c3N2)cc1 , please.
**A:** ≤ 1 µM

**Q:** GET /values?readout=MIC&item= CCc1ccc([C@H]2C[C@@H](C(C)C)n3ncc(C(=O)NCc4ccc(OC)cc4)c3N2)cc1 (relative stereo)
**A:** ≤ 1 µM

**Q:** # input molecule: Cc1ccc(C2CC(C(F)(F)F)n3ncc(C(=O)NCc4ccc5c(c4)OCO5)c3N2)cc1 (stereo not shown) ; wanted: its MIC
**A:** ≤ 1 µM

**Q:** Requested field: MIC. Item: CCc1ccc([C@H]2C[C@@H](C(F)(F)F)n3ncc(C(=O)NCc4ccc(OC)cc4)c3N2)cc1 (relative stereo) [Example 1]
**A:** ≤ 1 µM

**Q:** Need MIC of CCc1ccc([C@H]2C[C@@H](C(F)(F)F)n3ncc(C(=O)NCc4ccc(C)cn4)c3N2)cc1 (relative stereo) , thanks.
**A:** 1 to 2 µM

----------
Tested on: Mycobacterium tuberculosis H37Rv
Assay: Mycobacterium tuberculosis H37Rv Inhibition Assay (Whole Cell Assay)
Format: cell-based
Settings: ATCC 25618 / H37Rv, H37Rv strain (ATCC25618), Middlebrook 7H9, six days at 37° C., resazurin fluorescence after 48 hours
MEASUREMENT NAME: MIC

**Q:** State the recorded MIC for this entry: CCc1ccc([C@H]2C[C@@H](C(F)(F)F)n3ncc(C(=O)NCc4ccc(C)c(C)c4)c3N2)cc1 (relative stereo)
**A:** ≤ 1 µM

**Q:** MIC for CCc1ccc([C@H]2C[C@@H](C(F)(F)F)n3ncc(C(=O)NCc4ccc5c(c4)OCCO5)c3N2)cc1 (relative stereo) ?
**A:** 1 to 2 µM

**Q:** Need MIC, item CCc1ccc([C@H]2C[C@@H](C(F)(F)F)n3ncc(C(=O)NCc4ncc(F)cc4F)c3N2)cc1 [Example 101]
**A:** ≤ 1 µM

**Q:** Param item = CCc1ccc([C@H]2C[C@@H](C(F)(F)F)n3ncc(C(=O)NCc4ccccc4OC)c3N2)cc1 (relative stereo) ; retrieve measured MIC.
**A:** > 2 µM

**Q:** Look up MIC: CCc1ccc([C@H]2C[C@@H](C(F)(F)F)n3ncc(C(=O)NCc4ccc(N(C)C)cc4)c3N2)cc1 (relative stereo)
**A:** 1 to 2 µM

**Q:** Could you share which MIC value was measured for CCc1ccc(C2CC(C(F)(F)F)n3ncc(C(=O)NCc4ccc5c(c4)OCO5)c3N2)cc1 (centres unmarked) ?
**A:** ≤ 1 µM

**Q:** So what's the measured MIC for this one? O=C(NCc1ccco1)c1cnn2c1NC(c1ccc(Br)cc1)CC2C(F)(F)F (centres unmarked) [57′, reference compound]
**A:** > 2 µM

**Q:** # input compound: CCc1ccc([C@H]2C[C@@H](C(F)(F)F)n3ncc(C(=O)NCc4ccccc4C(F)(F)F)c3N2)cc1 (relative stereo) ; wanted: its MIC
**A:** > 2 µM

**Q:** # query: MIC of entry Cc1ccc([C@H]2C[C@@H](C(F)(F)F)n3ncc(C(=O)NCc4ccc5c(c4)OCCO5)c3N2)cc1 (relative stereo)
**A:** > 2 µM

**Q:** # lookup: MIC of COc1ccc(CNC(=O)c2cnn3c2NC(c2ccc(C)cc2)CC3C(F)(F)F)cc1 (centres unmarked)
**A:** ≤ 1 µM

**Q:** Look at this compound and give its reported MIC. CCc1ccc([C@H]2C[C@@H](C(F)(F)F)n3ncc(C(=O)NCc4ccc(C)n4C)c3N2)cc1 (relative stereo)
**A:** ≤ 1 µM

**Q:** MIC lookup needed for CCc1ccc([C@H]2C[C@@H](C(F)(F)F)n3ncc(C(=O)NCc4ccc(F)cn4)c3N2)cc1 (relative stereo) , thanks.
**A:** ≤ 1 µM

**Q:** Given the entry Cc1ccc([C@H]2C[C@@H](C(F)(F)F)n3ncc(C(=O)NCc4ccc(C(F)(F)F)cc4)c3N2)cc1 (relative stereo) , report its measured MIC.
**A:** 1 to 2 µM

**Q:** Look up MIC for this compound: Cc1ccc([C@H]2C[C@@H](C(F)(F)F)n3ncc(C(=O)NCc4ccc(N(C)C)cc4)c3N2)cc1 (relative stereo)
**A:** > 2 µM

Where do the numbers come from? From patent US20140038989A1.
